MEASURED ON: T1, rat pancreatic islet (wild type) GIP-receptor stably expressed on CHO-K1 cells (rat, UniProt P43219 19-455)
T1 sequence (looked up): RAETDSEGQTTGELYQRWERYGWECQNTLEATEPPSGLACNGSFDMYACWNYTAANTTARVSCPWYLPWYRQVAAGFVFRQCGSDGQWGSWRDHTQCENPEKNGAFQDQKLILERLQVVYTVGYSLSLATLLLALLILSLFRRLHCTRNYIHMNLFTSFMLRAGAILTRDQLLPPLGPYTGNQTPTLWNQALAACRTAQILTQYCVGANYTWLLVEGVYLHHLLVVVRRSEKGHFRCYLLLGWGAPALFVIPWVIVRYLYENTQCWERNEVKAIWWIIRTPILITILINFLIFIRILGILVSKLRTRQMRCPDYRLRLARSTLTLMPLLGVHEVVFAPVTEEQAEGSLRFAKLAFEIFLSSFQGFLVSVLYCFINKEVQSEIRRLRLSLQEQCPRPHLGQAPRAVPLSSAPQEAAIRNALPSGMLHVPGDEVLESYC
TEST NAME: cell-based or functional assay
Ends that are not written are not given here.
# Lookup of reported cAMP Production EC50 keyed by entry
Respond numerically; units are nM and should not be typed.

Some entries whose results are on file:
YAEGTFISDYSIAMAAAAQQDFVNWLLAQK-NH2 (range 1-14;range 19-30) [GIP(1-14)(AAAA)(19-30)NH2]    0.0587
YAEGTFEKEEKEKEEKEQQDFVNWLLAQK-NH2 (range 1-6;range 19-30; The expected mass 3574.0 fits the 11-residue linker as printed) [GIP(1-6)(EKEEKEKEEKE)(19-30)NH2]    8390
YAEGTFISDYSIAMEKEKQQDFVNWLLAQK-NH2 (range 1-14;range 19-30) [GIP(1-14)(EKEK)(19-30)NH2]    0.077

Specify reported cAMP Production EC50 for the binder shown: YAEGTFISDYSIAMQQDFVNWLLAQK-NH2 (peptide, UniProt P09681 52-65, looked up, range 1-14;range 19-30; Core deletion, no linker (formula 6, D unused, truncated at residue 30)) [GIP(1-14)(19-30)NH2]
78.7
